In this section we review reported protein stability index values for a set of variants.
B1: RSAD1 (parent)
chain: YCNFNKYIPRRLEEAAMQKCLVTE

Variants of: B1
Assay: protein stability index of a GFP-peptide fusion (GPS, HEK-293T) (PSI 1-6); higher = more stable;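 further: lentivirally expressed fusions sorted by FACS into six bins by GFP to DsRed ratio, PSI derived from sequencing read proportions per bin multiplied by bin number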
Conditions: c terminus: a fixed tail appended
Readout Kind: protein stability index

[[record]]
variant_id = "Y7D"
reported = 2.49

[[record]]
variant_id = "V22P"
reported = 1.97

[[record]]
variant_id = "N5M"
reported = 2.72

[[record]]
variant_id = "K19H"
reported = 1.7

[[record]]
variant_id = "C20V"
reported = 1.89

[[record]]
variant_id = "R10N"
reported = 2.33

[[record]]
variant_id = "V22M"
reported = 2.58

[[record]]
variant_id = "K19E"
reported = 2.71

[[record]]
variant_id = "A15P"
reported = 2.85

[[record]]
variant_id = "L21H"
reported = 2.69


Every entry's value here was drawn from the supplement of paper PMC10567573.
